Record form. Attribute: remaining at 40 min. Fill in for each entry.
Test: Metabolic stability in mouse liver microsomes after 40 mins by LC-MS/MS analysis
Format: ADME, Microsome
Conditions: read-out: Stability

# SMILES NOTATION, remaining at 40 min
data = [
    ("c1ccc(-c2cnc(Nc3ccc4[nH]ncc4c3)o2)cc1", "9%"),
]

Give recorded remaining at 40 min. Clc1ccc(-c2cnc(Nc3ccc4[nH]ncc4c3)o2)cc1
83%

###

Assay: Cytotoxicity against human MT4 cells by WST1 assay
Type: cell-based
Details: read-out: TC50 (the source's name)
MEASURE NAME: CC50

# SMILES NOTATION, CC50
measured = [
    ("c1ccc(-c2cnc(Nc3ccc4[nH]ncc4c3)o2)cc1", "> 90 µM"),
    ("Clc1ccc(-c2cnc(Nc3ccc4[nH]ncc4c3)o2)cc1", "> 90 µM"),
    ("COc1ccc(-c2cnc(Nc3ccc4[nH]ncc4c3)o2)cc1", "> 100 µM"),
    ("Clc1ccc(-c2cnc(Nc3ccc4[nH]ncc4c3)o2)cc1Cl", "> 100 µM"),
    ("Clc1ccccc1-c1cnc(Nc2ccc3[nH]ncc3c2)o1", "> 100 µM"),
    ("Clc1cccc(-c2cnc(Nc3ccc4[nH]ncc4c3)o2)c1", "> 100 µM"),
]

Hi, could you look up CC50 for each item in my list?
1. c1cc2[nH]ncc2cc1Nc1ncc(-c2ccc3c(c2)OCO3)o1
2. COc1cc(-c2cnc(Nc3ccc4[nH]ncc4c3)o2)ccc1Cl
3. COc1cccc(-c2cnc(Nc3ccc4[nH]ncc4c3)o2)c1
4. COc1ccccc1-c1cnc(Nc2ccc3[nH]ncc3c2)o1
5. COc1ccc(-c2cnc(Nc3ccc4[nH]ncc4c3)o2)cc1OC

["83 µM", "80 µM", "> 90 µM", "> 100 µM", "21 µM"]

###

For each entry below, report its solubility value.
Assay: Aqueous solubility in phosphate buffer at pH 7.4
Assay type: physicochemical
Give bare numbers, in µM.

For each of the compounds below, note its solubility.
1. Clc1ccc(-c2cnc(Nc3ccc4[nH]ncc4c3)o2)cc1
2. O=C(O)CCC(=O)OCn1ncc2cc(Nc3ncc(-c4ccc(Cl)cc4)o3)ccc21

1. 0.2
2. 60

Let me know recorded solubility for O=C(O)c1ccccc1C(=O)OCn1ncc2cc(Nc3ncc(-c4ccc(Cl)cc4)o3)ccc21 , thanks.
66

###

Assay: Therapeutic index, ratio of TC50 for human MT4 cells to EC50 for Human immunodeficiency virus 1 NL43 infected in human MT4 cells
Assay type: cell-based
Settings: read-out: TI
MEASURE NAME: selectivity ratio
Give bare numbers.

The examples below pair each entry with its known result.
# COMPOUND, MEASURE NAME, MEASUREMENT
measured = [
    ("O=[N+]([O-])c1ccc(N2CCCC(Nc3ccc4[nH]ncc4c3)C2)c(F)c1 (centres undefined)", "selectivity ratio", 10),
    ("COc1cc(-c2cnc(Nc3ccc4[nH]ncc4c3)o2)ccc1Cl", "selectivity ratio", 53),
    ("O=C(NCc1ccc([N+](=O)[O-])cc1F)Nc1ccc2[nH]ncc2c1", "selectivity ratio", 15),
    ("COc1cccc(-c2nc(Nc3ccc4[nH]ncc4c3)c3c(F)cccc3n2)c1", "selectivity ratio", 10),
    ("c1cc2[nH]ncc2cc1Nc1ncc(-c2ccc3c(c2)OCO3)o1", "selectivity ratio", 31),
]

Consider now this further compound.
Give the reported value of selectivity ratio for this record: COc1ccc(-c2cnc(Nc3ccc4[nH]ncc4c3)o2)cc1OC
50

Source of measurements: ChEMBL document CHEMBL2380204
